- targetOfAssay: FGFR3 (UniProt P22607)
- Sequence (P22607 whole entry, looked up): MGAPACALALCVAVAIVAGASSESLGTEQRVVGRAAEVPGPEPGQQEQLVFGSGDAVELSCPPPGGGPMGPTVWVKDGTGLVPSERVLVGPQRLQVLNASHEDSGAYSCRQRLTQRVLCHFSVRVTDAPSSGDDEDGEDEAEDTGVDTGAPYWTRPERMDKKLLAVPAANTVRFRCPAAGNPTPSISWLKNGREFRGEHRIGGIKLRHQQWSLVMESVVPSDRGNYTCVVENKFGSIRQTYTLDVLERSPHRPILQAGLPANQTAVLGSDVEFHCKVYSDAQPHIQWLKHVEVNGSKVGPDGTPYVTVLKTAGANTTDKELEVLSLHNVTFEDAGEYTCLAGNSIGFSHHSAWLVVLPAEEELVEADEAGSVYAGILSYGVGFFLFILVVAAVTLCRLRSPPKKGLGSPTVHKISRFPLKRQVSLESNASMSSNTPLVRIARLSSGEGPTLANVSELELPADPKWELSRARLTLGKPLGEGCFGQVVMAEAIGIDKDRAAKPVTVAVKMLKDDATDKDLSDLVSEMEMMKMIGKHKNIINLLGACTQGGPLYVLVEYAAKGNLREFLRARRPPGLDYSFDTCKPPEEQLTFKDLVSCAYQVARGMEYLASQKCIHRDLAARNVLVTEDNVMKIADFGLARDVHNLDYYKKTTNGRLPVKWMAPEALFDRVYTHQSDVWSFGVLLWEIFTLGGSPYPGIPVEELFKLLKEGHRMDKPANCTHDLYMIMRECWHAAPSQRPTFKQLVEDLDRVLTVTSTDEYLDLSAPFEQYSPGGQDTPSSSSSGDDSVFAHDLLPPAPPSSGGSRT
- assay: phosphorylation enrichment, bacterial display (enrichment ratio); higher = better substrate or ligand; peptides without Tyr show the background;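 also: 11-residue human phosphosite peptides and single-mutation variants displayed on the E. coli surface, counted by deep sequencing, each peptide's frequency after selection divided by its frequency in the unselected input library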;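 also: frequency after pTyr selection over input frequency; kinase dosed for 20-30% of maximal phosphorylation in three min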
Assign yes to entries whose phosphorylation enrichment meets or exceeds 3; assign no to the rest.

INSERT INTO results (monomersequence, grouplabel) VALUES
  ('AFQGKYTPSGQ [ALDOA_Y343_C339Y_YF]', 'no'),
  ('LEFGDYHPLKP [VPS35L_Y32]', 'yes'),
  ('EPYELYCEMGS [CBL_Y371_Q367P]', 'yes'),
  ('ESTPLYPMLFG [SCLY_Y280_F276S]', 'yes'),
  ('PHMQTYEVDLN [SDHB_Y61]', 'no'),
  ('NPQKSYLIRLF [WAS_Y83_F84L_YF]', 'no');

---

- System: Fer (mouse)
- assay: phosphorylation enrichment, bacterial display (enrichment ratio); higher = better substrate or ligand; peptides without Tyr show the background
Assign label 1 to entries whose phosphorylation enrichment meets or exceeds 0.6; assign label 0 to the rest.

INSERT INTO measurements (monomersequence, targetofassay, grouplabel) VALUES
  ('SAAAIYTVRHP [PMP22_Y117]', 'Fer (mouse)', 'label 0'),
  ('FRTGHYLCNAC [GATA1_Y223_D218Y_YF]', 'Fer (mouse)', 'label 0'),
  ('FQRLQYIKQLG [SAMHD1_Y146_R145Q]', 'Fer (mouse)', 'label 0'),
  ('PATYTYDEYKK [COL8A2_Y648]', 'Fer (mouse)', 'label 0'),
  ('RQGKDYIGAIP [KDR_Y951_V952I]', 'Fer (mouse)', 'label 0'),
  ('LEYNEYFRDLN [HPRT1_Y198_D194E]', 'Fer (mouse)', 'label 1'),
  ('QEMMEYRHQIQ [DES_Y324]', 'Fer (mouse)', 'label 0'),
  ('DDSNPYINVKL [MTHFD1_Y52_L51P]', 'Fer (mouse)', 'label 1'),
  ('STEEQYRIRQV [EFHC1_Y115]', 'Fer (mouse)', 'label 0'),
  ('PANMVYSTVEI [SLAMF7_Y304_T302M]', 'Fer (mouse)', 'label 1'),
  ('GGQEDYDRLRP [RAC3_Y64_A59G]', 'Fer (mouse)', 'label 0'),
  ('KVPRHYDDPGK [FOXG1_Y246]', 'Fer (mouse)', 'label 1'),
  ('GENTVYAQVFN [LY9_Y603_M602V]', 'Fer (mouse)', 'label 1'),
  ('LWPIWYSCHRP [MRGPRX1_Y130_R131S]', 'Fer (mouse)', 'label 1'),
  ('GDYYCYLAEVA [YWHAG_Y133_R132C]', 'Fer (mouse)', 'label 1');

---

- targetOfAssay: Fes (UniProt P07332)
- Sequence (P07332 whole entry, looked up): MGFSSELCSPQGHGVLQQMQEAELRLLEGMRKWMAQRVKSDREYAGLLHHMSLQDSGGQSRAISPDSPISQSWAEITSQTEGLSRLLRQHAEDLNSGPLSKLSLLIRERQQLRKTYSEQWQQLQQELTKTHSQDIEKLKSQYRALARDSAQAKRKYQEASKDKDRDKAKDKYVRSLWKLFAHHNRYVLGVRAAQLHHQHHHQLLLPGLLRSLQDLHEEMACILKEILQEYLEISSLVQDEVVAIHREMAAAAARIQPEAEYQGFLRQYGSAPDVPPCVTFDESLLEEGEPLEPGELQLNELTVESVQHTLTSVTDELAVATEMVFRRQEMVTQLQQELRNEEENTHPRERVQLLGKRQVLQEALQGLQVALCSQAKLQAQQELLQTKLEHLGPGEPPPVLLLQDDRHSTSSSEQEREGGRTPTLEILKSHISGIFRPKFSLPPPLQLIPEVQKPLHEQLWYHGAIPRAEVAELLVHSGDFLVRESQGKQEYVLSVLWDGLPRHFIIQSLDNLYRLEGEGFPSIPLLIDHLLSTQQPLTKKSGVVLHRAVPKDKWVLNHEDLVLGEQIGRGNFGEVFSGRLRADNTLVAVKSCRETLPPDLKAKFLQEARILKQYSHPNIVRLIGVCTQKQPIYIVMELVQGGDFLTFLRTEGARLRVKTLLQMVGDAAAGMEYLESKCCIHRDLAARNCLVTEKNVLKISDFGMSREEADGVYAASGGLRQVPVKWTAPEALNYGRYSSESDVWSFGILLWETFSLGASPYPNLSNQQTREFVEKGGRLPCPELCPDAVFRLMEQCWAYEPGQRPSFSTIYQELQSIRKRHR
- assay: phosphorylation enrichment, bacterial display (enrichment ratio); higher = better substrate or ligand; peptides without Tyr show the background
Assign t to entries whose phosphorylation enrichment meets or exceeds 0.8; assign f to the rest.

INSERT INTO results (monomersequence, targetofassay, grouplabel) VALUES
  ('SRDTCYLVLAV [AMH_Y195_R194C]', 'Fes (UniProt P07332)', 't'),
  ('QFFQSYFNNNF [ZNF236_Y644]', 'Fes (UniProt P07332)', 't'),
  ('GCCSWYRGWAP [TIMP3_Y195_Y191C]', 'Fes (UniProt P07332)', 't'),
  ('MGSYNYLGFAR [SPTLC2_Y178]', 'Fes (UniProt P07332)', 't'),
  ('GRVYVYHLSEQ [ITGAE_Y551_R552H]', 'Fes (UniProt P07332)', 't'),
  ('HTVVSYAKVRA [CLOCK_Y378_E380K]', 'Fes (UniProt P07332)', 't'),
  ('IVAREYYSKAD [CAMK2B_Y107_E110K]', 'Fes (UniProt P07332)', 't'),
  ('VKANTYEKYWP [GATM_Y100]', 'Fes (UniProt P07332)', 'f'),
  ('DNKALYDICFR [TUBB3_Y208_E205K]', 'Fes (UniProt P07332)', 't'),
  ('VQSASYLNDCL [MCM3AP_Y864_A867D]', 'Fes (UniProt P07332)', 't'),
  ('RGESFYQDTMN [RARS_Y338_R341T]', 'Fes (UniProt P07332)', 't'),
  ('CTTIHYIYMCN [TP53_Y234_N235I]', 'Fes (UniProt P07332)', 't'),
  ('LALTVYADCLA [ABCA4_Y2063_G2059A]', 'Fes (UniProt P07332)', 't'),
  ('FRTGHYLCNAC [GATA1_Y223_D218Y_YF]', 'Fes (UniProt P07332)', 'f'),
  ('ESLSSYWESAK [APOC2_Y47]', 'Fes (UniProt P07332)', 't'),
  ('LTQRTYMSENA [GPAA1_Y49]', 'Fes (UniProt P07332)', 'f'),
  ('DGMADYSDPSY [CDC5L_Y459]', 'Fes (UniProt P07332)', 't'),
  ('ERIEFYELNKK [PMM2_Y145_D148N]', 'Fes (UniProt P07332)', 't'),
  ('PYYTSYPPSPD [GDAP2_Y491]', 'Fes (UniProt P07332)', 't'),
  ('VRRRSYSAGNA [KANK1_Y324_K321R]', 'Fes (UniProt P07332)', 'f'),
  ('KRGVSYILKLA [SERPINB1_Y84_A82V]', 'Fes (UniProt P07332)', 't'),
  ('QPSPSYDSSRG [TCF12_Y70]', 'Fes (UniProt P07332)', 'f'),
  ('EADRKYEEVAC [TPM3_Y163_R168C]', 'Fes (UniProt P07332)', 't'),
  ('SGDVQYRSSVR [FREM2_Y2158_T2153S]', 'Fes (UniProt P07332)', 'f'),
  ('SESSYYKSLNL [NGEF_Y289_A286S]', 'Fes (UniProt P07332)', 'f'),
  ('STEEQYRIRQV [EFHC1_Y115]', 'Fes (UniProt P07332)', 'f'),
  ('ISHVAYRVLGK [TRRAP_Y892]', 'Fes (UniProt P07332)', 'f'),
  ('PQGVSYIYTID [DCX_Y103_R102S]', 'Fes (UniProt P07332)', 't'),
  ('KDHPDYKYQPR [SOX10_Y171]', 'Fes (UniProt P07332)', 'f'),
  ('ISSLCYELLEE [TRPC6_Y896_R895C]', 'Fes (UniProt P07332)', 't'),
  ('KLFFHYDPKLC [INSR_Y457_N458D]', 'Fes (UniProt P07332)', 't'),
  ('VQVAYYTVMMN [SPATA17_Y84_M86V]', 'Fes (UniProt P07332)', 't'),
  ('FGDTPYIPFRD [CDC14C_Y132]', 'Fes (UniProt P07332)', 't'),
  ('FQKNVYSEELR [LMNA_Y211_I210V]', 'Fes (UniProt P07332)', 'f');

---

# Lookup of reported phosphorylation enrichment keyed by entry
- Test system: c-Abl (mouse)
- assay: phosphorylation enrichment, bacterial display (enrichment ratio); higher = better substrate or ligand; peptides without Tyr show the background
assayMetric: phosphorylation enrichment

INSERT INTO results (monomersequence, reportedmeasurement) VALUES
  ('RRIHNYRGHLW [VHL_Y112_S111N]', 0.609),
  ('LVPAWYIGFLC [KCNQ2_Y237_T234P]', 0.804),
  ('ESLRSYDVMDV [KCNQ2_Y562_P561S]', 0.817),
  ('LDYNEYVRDLN [HPRT1_Y198_F199V]', 0.587),
  ('DYGSGYPNDPK [RNASEH2A_Y210]', 0.778),
  ('RELSWYRGRRP [HESX1_Y106]', 0.787),
  ('CPPKVYELMRA [ABL2_Y515]', 0.585),
  ('SLEKGYELPDG [ACTC1_Y242_S241G]', 0.6),
  ('DGTGHYLCNAC [GATA5_Y208]', 0.595);

---

- targetOfAssay: Jak2 (UniProt O60674)
- Sequence (O60674 whole entry, looked up): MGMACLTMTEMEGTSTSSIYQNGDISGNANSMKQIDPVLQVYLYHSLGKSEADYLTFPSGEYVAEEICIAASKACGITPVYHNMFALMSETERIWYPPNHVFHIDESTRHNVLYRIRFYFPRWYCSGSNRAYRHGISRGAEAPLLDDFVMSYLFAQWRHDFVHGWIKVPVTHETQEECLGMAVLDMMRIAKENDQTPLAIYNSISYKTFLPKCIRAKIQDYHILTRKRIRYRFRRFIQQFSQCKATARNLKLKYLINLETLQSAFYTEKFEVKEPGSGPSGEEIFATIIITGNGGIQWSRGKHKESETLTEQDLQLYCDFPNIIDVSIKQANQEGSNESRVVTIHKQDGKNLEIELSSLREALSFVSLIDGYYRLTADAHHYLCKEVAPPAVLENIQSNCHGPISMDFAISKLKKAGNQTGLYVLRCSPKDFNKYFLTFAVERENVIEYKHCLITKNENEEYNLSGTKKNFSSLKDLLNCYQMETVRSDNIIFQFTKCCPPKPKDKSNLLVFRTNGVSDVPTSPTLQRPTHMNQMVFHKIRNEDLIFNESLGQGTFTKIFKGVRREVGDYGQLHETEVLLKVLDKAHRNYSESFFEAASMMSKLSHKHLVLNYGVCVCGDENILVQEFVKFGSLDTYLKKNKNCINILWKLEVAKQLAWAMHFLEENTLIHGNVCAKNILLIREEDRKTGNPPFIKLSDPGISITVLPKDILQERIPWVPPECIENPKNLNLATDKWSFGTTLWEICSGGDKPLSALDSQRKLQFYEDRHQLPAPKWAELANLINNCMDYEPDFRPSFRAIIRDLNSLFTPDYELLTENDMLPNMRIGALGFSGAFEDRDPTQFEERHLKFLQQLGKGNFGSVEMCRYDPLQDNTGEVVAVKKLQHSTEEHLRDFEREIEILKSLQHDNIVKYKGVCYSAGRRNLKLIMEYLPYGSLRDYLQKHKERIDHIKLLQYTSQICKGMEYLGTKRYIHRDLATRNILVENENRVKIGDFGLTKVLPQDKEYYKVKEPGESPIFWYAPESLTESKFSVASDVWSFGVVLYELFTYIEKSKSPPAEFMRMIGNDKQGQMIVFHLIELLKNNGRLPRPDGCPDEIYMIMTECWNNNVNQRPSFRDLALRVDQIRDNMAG
- assay: phosphorylation enrichment, bacterial display (enrichment ratio); higher = better substrate or ligand; peptides without Tyr show the background
# Lookup of reported phosphorylation enrichment keyed by entry
assayMetric: phosphorylation enrichment

INSERT INTO assay_data (monomersequence, reportedmeasurement) VALUES
  ('ALERPYTSKHS [NANS_Y71]', 0.564),
  ('IITVHYVLEES [RYR2_Y4559_A4556T]', 1.02),
  ('LAAAGYDVEKN [H1-3_Y72]', 0.711),
  ('RLAQRYLIWEC [SCN5A_Y694]', 1.34),
  ('EREYKYDAHNY [OAT_Y50_G51D]', 0.8),
  ('GVIRHSVVCST [BTK_Y334_Y334S]', 0.67),
  ('YGPPQYNMQYS [ERBB2IP_Y977_I979M]', 0.496),
  ('PTTKTYFPQFD [HBA1_Y43_H46Q]', 0.737),
  ('SGADSYEMEED [EGFR_Y316_C311S]', 1.12),
  ('FGTAQYCCRMG [LRRK2_Y2023_I2020T_YF]', 0.515),
  ('VLVSQYEKLNA [AMZ2_Y26]', 0.638),
  ('GKTQQYECKWY [BCR_Y751_D752E]', 0.97),
  ('LISVSYDDWDY [GRIN2A_Y281]', 1.35),
  ('EFENSCIFDIN [GAB1_Y83_Y83C]', 0.824),
  ('AHLTEYLSTHF [UQCRC1_Y219_D215H_YF]', 0.837),
  ('REVPVYTDSEP [FAM120B_Y368]', 1.38),
  ('EILTQYEAMAS [GFAP_Y242_R239L]', 0.846),
  ('SSYDIYHLSRE [KIR3DL2_Y253]', 0.724),
  ('LVPAWYIGFLC [KCNQ2_Y237_T234P]', 1.1),
  ('TFRPPYFHRNC [HGD_Y333_YF]', 0.717),
  ('NPQKSYLIRLF [WAS_Y83_F84L_YF]', 0.681),
  ('SVTCTYSPALF [TP53_Y126_N131Y_YF]', 1.52),
  ('HYGNNYRDVLQ [MACC1_Y803]', 0.661),
  ('VTDGKYAFKPK [GTF2E2_Y137_I133T]', 0.521),
  ('FGLPRYRWLTH [TSPAN12_Y143_YF]', 0.687),
  ('GYRVYYTPDSR [PTPRF_Y451]', 2.29),
  ('SHSMRYFYTAV [HLA-C_Y31_D33Y]', 1.2),
  ('PKSLFYLLLKL [TRPC6_Y775]', 4.8),
  ('EGLKVYINGTL [ADGRD1_Y183_V184I]', 1.38),
  ('DGMADYSDPSY [CDC5L_Y459]', 1.47),
  ('ADLLDYIKALN [HPRT1_Y81]', 0.928),
  ('QSVEPYTKQQL [STAT3_Y640]', 0.755),
  ('EEEPVYEAEPE [HCLS1_Y360]', 1.38),
  ('FRTGHYLCNAC [GATA1_Y223_D218Y_YF]', 0.53),
  ('LSPPVYLTNEW [NRK_Y885_I880L]', 1.54),
  ('SLIDGYFRLTE [JAK2_Y372_A377E_YF]', 4.29),
  ('ISSLRYELLEE [TRPC6_Y896]', 0.832),
  ('HHFAAYFQQGD [GPI_Y351_R347H]', 0.989),
  ('PTTKTYFPRFD [HBA1_Y43_H46R]', 0.731);
